Test system: Rattus norvegicus
Assay Text: Biodistribution in muscle of immature female rat after 1 hr administration of 3 micro Ci (111 kBq) in the absence of 60 microg estradiol
Assay type: ADME, organism-based, Muscle tissue
Run Conditions: in vivo
Measurement Type: ID/g (%)

>>> df
                              smiles_record      system_tested  measurement_type  observed_measurement
0  C[C@@H]1Cc2cc(O)c(F)cc2[C@H]2CC[C@@]3(C)[C@@H](CC[C@@]3(O)/C=C/I)[C@H]12  Rattus norvegicus              ID/g                  0.61
1  C[C@]12CC[C@@H]3c4cc(F)c(O)cc4CC[C@H]3[C@@H]1CC[C@@]2(O)/C=C\I  Rattus norvegicus              ID/g                  0.57
2  C[C@]12CC[C@@H]3c4ccc(O)c(F)c4CC[C@H]3[C@@H]1CC[C@@]2(O)/C=C/I  Rattus norvegicus              ID/g                  0.46
3  CO[C@H]1C[C@@]2(C)[C@@H](CC[C@@]2(O)/C=C\I)[C@@H]2CCc3c(ccc(O)c3F)[C@H]21  Rattus norvegicus              ID/g                  0.66
4  C[C@@H]1Cc2c(ccc(O)c2F)[C@H]2CC[C@@]3(C)[C@@H](CC[C@@]3(O)/C=C\I)[C@H]12  Rattus norvegicus              ID/g                  0.45

(I) C[C@@H]1Cc2cc(O)c(F)cc2[C@H]2CC[C@@]3(C)[C@@H](CC[C@@]3(O)/C=C\I)[C@H]12
(II) C[C@]12CC[C@@H]3c4ccc(O)c(F)c4CC[C@H]3[C@@H]1CC[C@@]2(O)/C=C\I
Given the listed records, identify the one among I and II with higher ID/g. Answer by stating the label of the chosen item.
II
(II: 1.26%, I: 0.53%)

###

Tested on: Rattus norvegicus
Assay Text: Biodistribution in thyroid of immature female rat after 5 hour administration of 3 micro Ci (111 kBq) in the absence of 60 microg estradiol
Assay type: ADME, organism-based, Thyroid gland
Run Conditions: in vivo
Measurement Type: ID/g (%)

Here are 2 compounds together with their reported answers.
                              smiles_record  measurement_type  observed_measurement
0  C[C@@H]1Cc2c(ccc(O)c2F)[C@H]2CC[C@@]3(C)[C@@H](CC[C@@]3(O)/C=C/I)[C@H]12              ID/g                   114
1  C[C@@H]1Cc2cc(O)c(F)cc2[C@H]2CC[C@@]3(C)[C@@H](CC[C@@]3(O)/C=C\I)[C@H]12              ID/g                   424

(a) CO[C@H]1C[C@@]2(C)[C@@H](CC[C@@]2(O)/C=C/I)[C@@H]2CCc3cc(O)c(F)cc3[C@H]21
(b) C[C@]12CC[C@@H]3c4cc(F)c(O)cc4CC[C@H]3[C@@H]1CC[C@@]2(O)/C=C\I
Pick the one with the larger ID/g: a vs b Please identify the chosen entry by its label.
a
(a: 412%, b: 149.9%)
